- Assay info: Inhibitory activity (RA2) against Prostaglandin G/H synthase 2 was calculated relative to aspirin
Threshold 4. relative activity vs aspirin below it: yes (1). relative activity vs aspirin at it or above: no (0).

[
  {
    "Compound": "Cc1cc(C)cc(-n2c(O)cc3ccccc3c2=O)c1",
    "Assigned category": "no (0)"
  },
  {
    "Compound": "O=C1CCC(N2C(=O)c3ccccc3C2=O)C(=O)N1 (racemic) [(+/-)-thalidomide]",
    "Assigned category": "yes (1)"
  },
  {
    "Compound": "C[C@@]1(N2C(=O)c3cccc([N+](=O)[O-])c3C2=O)CCC(=O)NC1=O",
    "Assigned category": "yes (1)"
  },
  {
    "Compound": "C[C@@]1(N2C(=O)c3ccc([N+](=O)[O-])cc3C2=O)CCC(=O)NC1=O",
    "Assigned category": "yes (1)"
  },
  {
    "Compound": "O=C1c2ccccc2C(=O)N1c1c[nH]c(=O)[nH]c1=O",
    "Assigned category": "yes (1)"
  },
  {
    "Compound": "C[C@@]1(N2C(=O)c3ccccc3C2=O)CCC(=O)NC1=O",
    "Assigned category": "yes (1)"
  },
  {
    "Compound": "Cc1cc(C)c(C)c(N2C(=O)c3ccccc3C2=O)c1C",
    "Assigned category": "yes (1)"
  },
  {
    "Compound": "Cc1cc(C)cc(N2C(=O)c3ccccc3C2=O)c1",
    "Assigned category": "no (0)"
  },
  {
    "Compound": "O=C1NCCCC1N1C(=O)c2ccccc2C1=O (stereo unspecified)",
    "Assigned category": "yes (1)"
  },
  {
    "Compound": "Cc1cc(C)nc(-n2c(O)cc3ccccc3c2=O)n1",
    "Assigned category": "no (0)"
  },
  {
    "Compound": "COc1cc(C)nc(-n2c(O)cc3ccccc3c2=O)n1",
    "Assigned category": "no (0)"
  }
]
